Entries with their measured pIC50, system Dual specificity protein kinase CLK1 (Homo sapiens, UniProt P49759):
pIC50: −log10 of the molar value.
property_label: pIC50

Worked cases, pIC50 given:
smi: Cn1ncc2cc(/C=C3\N=C(NC4CCCCC4)NC3=O)ccc21
pIC50: 5.60
--
smi: O=C1NC(NC2CCCCCC2)=N/C1=C\c1ccc2c(c1)CCO2
pIC50: 7.62

[I] COC(=O)[C@H](C)NC1=N/C(=C\c2ccc3ncsc3c2)C(=O)N1
[II] COc1ccc(/C=C2\N=C(Nc3ccc(N4CCN(C)CC4)cc3)NC2=O)cc1O
[III] O=C1NC(NC2CCCCCC2)=N/C1=C\c1ccc2[nH]ncc2c1
[IV] O=C1NC(NC2CCCCCC2)=N/C1=C\c1ccc2c(c1)OCO2
Arrange the 4 compounds by rising pIC50, starting with the smallest. When ranking, write the labels in the order the request describes.
III, IV, I, II
(III: 6.86, IV: 7.38, I: 7.70, II: 7.92)

[a] CC(C)C[C@H](COC1CC1)NC1=N/C(=C\c2ccc3ncsc3c2)C(=O)N1
[b] COC(=O)[C@H](Cc1ccccc1)NC1=N/C(=C\c2ccc3ncsc3c2)C(=O)N1
[c] Cn1ncc2cc(/C=C3\N=C(NC45CC6CC(CC(C6)C4)C5)NC3=O)ccc21
[d] O=C1NC(NC2CCCCC2)=N/C1=C\c1ccc2nnsc2c1
Arrange the 4 compounds by rising pIC50, starting with the smallest. When ranking, write the labels in the order the request describes.
d, c, b, a
(d: 6.07, c: 6.85, b: 7.55, a: 7.77)

[I] COC(=O)[C@@H](NC1=N/C(=C\c2ccc3ncsc3c2)C(=O)N1)C(C)C
[II] O=C1NC(Nc2cccc(C(F)(F)F)c2)=N/C1=C\c1ccc2ncsc2c1
Input pair: I , II . Output: entry with lower pIC50. Give the chosen item's label as your response.
II

[a] O=C1NC(NC23CC4(F)CC(F)(CC(F)(C4)C2)C3)=N/C1=C\c1ccc2ncsc2c1
[b] CC(C)(C)OC[C@H](NC1=N/C(=C\c2ccc3ncsc3c2)C(=O)N1)c1ccccc1
[c] COC(=O)[C@@H](Cc1ccccc1)NC1=N/C(=C\c2ccc3ncsc3c2)C(=O)N1
[d] O=C1NC(NCc2ccccc2OC(F)(F)F)=N/C1=C\c1ccc2ncsc2c1
Kindly order the items shown according to pIC50, from the highest value down. When ranking, write the labels in the order the request describes.
a, b, d, c

----------
Entries with their measured pIC50, system Dual specificity tyrosine-phosphorylation-regulated kinase 3 (Homo sapiens):
pIC50: −log10 of the molar value.
property_label: pIC50

Worked cases, pIC50 given:
molecule: O=C1NC(NCc2ccncc2)=N/C1=C\c1ccc2ncsc2c1
pIC50: 5.99
--
molecule: O=C1NC(NC2CCNC2=O)=N/C1=C\c1ccc2ncsc2c1 (racemic)
pIC50: 5.59
--
molecule: CC(C)C[C@@H](CF)NC1=N/C(=C\c2ccc3ncsc3c2)C(=O)N1
pIC50: 6.64
--
molecule: O=C1NC(NCC(O)C2CCCCC2)=N/C1=C\c1ccc2ncsc2c1 (racemic)
pIC50: 6.45
--
molecule: C[C@@H]1[C@H]2C[C@@H](C[C@H]1NC1=N/C(=C\c3ccc4ncsc4c3)C(=O)N1)C2(C)C
pIC50: 6.00
--
molecule: O=C1NC(N[C@@H]2CCCOC2)=N/C1=C\c1ccc2ncsc2c1
pIC50: 5.79
--
molecule: O=C1NC(N[C@H]2CN3CCC2CC3)=N/C1=C\c1ccc2ncsc2c1
pIC50: 6.70
--
molecule: COC(=O)[C@H](C)NC1=N/C(=C\c2ccc3ncsc3c2)C(=O)N1
pIC50: 5.91
--
molecule: CO[C@H]1CCCC[C@@H]1NC1=N/C(=C\c2ccc3ncsc3c2)C(=O)N1
pIC50: 5.92
--
molecule: O=C1NC(NC23CC4CC(CC(C4)C2)C3)=N/C1=C\c1ccc2[nH]ncc2c1
pIC50: 7.13

[A] O=C1NC(NC2CCCCCC2)=N/C1=C\c1ccc2ncoc2c1
[B] Cc1ccc(CNC2=N/C(=C\c3ccc4ncsc4c3)C(=O)N2)o1
Input pair: A , B . Output: entry with lower pIC50. Give the chosen item's label as your response.
B
(B: 5.74, A: 5.94)

[A] O=C1NC(N[C@H]2CCCOC2)=N/C1=C\c1ccc2ncsc2c1
[B] Cc1ccc(NC2=N/C(=C\c3ccc4ncsc4c3)C(=O)N2)cc1F
[C] CN1CCC(CNC2=N/C(=C\c3ccc4ncsc4c3)C(=O)N2)CC1
[D] O=C1NC(Nc2ccccn2)=N/C1=C\c1ccc2ncsc2c1
Kindly order the items shown according to pIC50, from the highest value down. When ranking, write the labels in the order the request describes.
D, A, C, B
(D: 6.46, A: 6.21, C: 5.80, B: 5.51)

[I] CC(=O)N1CCc2ccc(NC3=N/C(=C\c4ccc5ncsc5c4)C(=O)N3)cc21
[II] COC(=O)[C@H](CC(C)C)NC1=N/C(=C\c2ccc3ncsc3c2)C(=O)N1
Input pair: I , II . Output: entry with lower pIC50. Give the chosen item's label as your response.
II
(II: 5.81, I: 6.35)

[I] O=C1NC(Nc2ccccc2)=N/C1=C\c1ccc2ncsc2c1
[II] O=C1NC(NC23CC4CC(CC(C4)C2)C3)=N/C1=C\c1ccc2ncoc2c1
Param pair: I , II . Output: the one whose pIC50 is numerically greater. Give the chosen item's label as your response.
II
